# measured.target: Rac GTPase-activating protein 1 (Homo sapiens)
# assay: blockers of MgcRacGAP-driven Rac1 GTP hydrolysis – biochemical, ADP Hunter fluorescence, primary and confirmatory, confirmation (AID 624330);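 also: fluorescence reports GDP produced by GAP-driven GTP hydrolysis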
# experimental.setup: MgcRacGAP-stimulated Rac1 GTP hydrolysis, at 30 µM, stronger effect = higher value, GST-tagged Rac1 F28L mutant substrate
About 2,100 (0.62%) of roughly 340,000 compounds were called active. These entries were drawn from the full list. Entries with a potency or affinity are not part of this list.
endpoint: inhibition (%)
Could you give me the number in %? Just the number is fine.

[
  {
    "compound": "COc1ccc(-c2cccc([C@H]3[C@@H]4C=CCC[C@@]4(C)C(=O)N3Cc3ccccc3)c2)cc1",
    "endpoint": "inhibition",
    "unit.spec": "%",
    "value.measured": 12.4
  },
  {
    "compound": "CCN(CC)CCNC(=O)NC(=O)c1ccc(Cl)cc1",
    "endpoint": "inhibition",
    "unit.spec": "%",
    "value.measured": -9.05
  },
  {
    "compound": "COc1ccc(N=Cc2c(O)c3ccccc3oc2=O)cc1",
    "endpoint": "inhibition",
    "unit.spec": "%",
    "value.measured": 10.7
  },
  {
    "compound": "C=CCn1c(N)cc(=O)nc1SCC(=O)Nc1ccc2ccccc2c1",
    "endpoint": "inhibition",
    "unit.spec": "%",
    "value.measured": 6.15
  },
  {
    "compound": "CSCCC(=O)N1C(C)CCCC1C(=O)O (configuration not stated)",
    "endpoint": "inhibition",
    "unit.spec": "%",
    "value.measured": 8.45
  }
]

Return value of inhibition for input CCCCCN1C(C)=CC(=C(C#N)C#N)C=C1C , no commentary.
9.16

Return value of inhibition for input Cn1ncc2c(Nc3cc(Cl)cc(Cl)c3)ncnc21 , no commentary.
11.1

Return value of inhibition for input CCCCOC(=O)c1nc(Cl)c(Cl)c(N)c1Cl , no commentary.
-9.26

Return value of inhibition for input COc1cc(/C=C2/C(=O)N(C)C(=S)N2C)ccc1OCc1cccc(F)c1 , no commentary.
8.12

Return value of inhibition for input COc1ccccc1-c1nnc(SC)n1C , no commentary.
7.84

Return value of inhibition for input CN1C(=O)/C(=C/c2ccc(O)c([N+](=O)[O-])c2)N(C)C1=S , no commentary.
12.6

Return value of inhibition for input CC1CCN(CC(O)COc2cccc(F)c2)CC1 (configuration not stated) , no commentary.
2.16

---

# measured.target: Rac GTPase-activating protein 1 (Homo sapiens)
# assay: blockers of MgcRacGAP-driven Rac1 GTP hydrolysis – biochemical, ADP Hunter fluorescence, primary and confirmatory, confirmation (AID 624330);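 also: fluorescence reports GDP produced by GAP-driven GTP hydrolysis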
# experimental.setup: MgcRacGAP-stimulated Rac1 GTP hydrolysis, at 30 µM, stronger effect = higher value, GST-tagged Rac1 F28L mutant substrate
Among all 340,000 compounds or so, about 2,100 (0.62%) were called active. These entries were drawn from the full list. Measured potencies and affinities stand elsewhere.
Listed compounds paired with reported inhibition
Could you give me the number in %? Just the number is fine.

[
  {
    "compound": "CCOC(=O)C(O)(CC(=O)c1ccc(Cl)cc1)C(=O)OCC",
    "measured.target": "Rac GTPase-activating protein 1 (Homo sapiens)",
    "unit.spec": "%",
    "inhibition": 3.02
  },
  {
    "compound": "COc1cc(/C=N/NC(=O)C2c3ccccc3Oc3ccccc32)ccc1O",
    "measured.target": "Rac GTPase-activating protein 1 (Homo sapiens)",
    "unit.spec": "%",
    "inhibition": 5.77
  },
  {
    "compound": "CC1CC(=O)C2=C(C1)Nc1nc3ccccc3n1C2c1cccnc1 (stereo not given)",
    "measured.target": "Rac GTPase-activating protein 1 (Homo sapiens)",
    "unit.spec": "%",
    "inhibition": 6.35
  },
  {
    "compound": "CCCCOC(=O)C1=C(C)Nc2ncnn2C1c1ccc(OC)c(OC)c1OC (stereo not given)",
    "measured.target": "Rac GTPase-activating protein 1 (Homo sapiens)",
    "unit.spec": "%",
    "inhibition": 0.42
  },
  {
    "compound": "Cc1c(C(c2cc(O)ccc2O)c2c(C)n(C)n(-c3ccccc3)c2=O)c(=O)n(-c2ccccc2)n1C",
    "measured.target": "Rac GTPase-activating protein 1 (Homo sapiens)",
    "unit.spec": "%",
    "inhibition": -9.5
  }
]

Fill: inhibition (Rac GTPase-activating protein 1 (Homo sapiens)) for this compound c1ccc(-n2ncc3c(N4CCN(CCOc5cccc6ccccc56)CC4)ncnc32)cc1
-0.49

Fill: inhibition (Rac GTPase-activating protein 1 (Homo sapiens)) for this compound CC(C)(O[C@@H]1O[C@H](CO)[C@@H](O)[C@H](O)[C@H]1O)[C@H]1Cc2cc3ccc(=O)oc3cc2O1
3.49

Fill: inhibition (Rac GTPase-activating protein 1 (Homo sapiens)) for this compound COc1ccc(N2CCN(C(=O)CCS(=O)(=O)c3cccc4nsnc34)CC2)cc1
28

Fill: inhibition (Rac GTPase-activating protein 1 (Homo sapiens)) for this compound CCOC(=O)C1CCN(C(=O)c2cccc(S(=O)(=O)N3CCc4ccccc43)c2)CC1
3.11

Fill: inhibition (Rac GTPase-activating protein 1 (Homo sapiens)) for this compound c1cn(CCCNc2ncnc3nc[nH]c23)cn1
8.22
